targetDesc: T1, MERS spike protein (MERS-CoV, UniProt K9N5Q8 18-1296)
T1 chain: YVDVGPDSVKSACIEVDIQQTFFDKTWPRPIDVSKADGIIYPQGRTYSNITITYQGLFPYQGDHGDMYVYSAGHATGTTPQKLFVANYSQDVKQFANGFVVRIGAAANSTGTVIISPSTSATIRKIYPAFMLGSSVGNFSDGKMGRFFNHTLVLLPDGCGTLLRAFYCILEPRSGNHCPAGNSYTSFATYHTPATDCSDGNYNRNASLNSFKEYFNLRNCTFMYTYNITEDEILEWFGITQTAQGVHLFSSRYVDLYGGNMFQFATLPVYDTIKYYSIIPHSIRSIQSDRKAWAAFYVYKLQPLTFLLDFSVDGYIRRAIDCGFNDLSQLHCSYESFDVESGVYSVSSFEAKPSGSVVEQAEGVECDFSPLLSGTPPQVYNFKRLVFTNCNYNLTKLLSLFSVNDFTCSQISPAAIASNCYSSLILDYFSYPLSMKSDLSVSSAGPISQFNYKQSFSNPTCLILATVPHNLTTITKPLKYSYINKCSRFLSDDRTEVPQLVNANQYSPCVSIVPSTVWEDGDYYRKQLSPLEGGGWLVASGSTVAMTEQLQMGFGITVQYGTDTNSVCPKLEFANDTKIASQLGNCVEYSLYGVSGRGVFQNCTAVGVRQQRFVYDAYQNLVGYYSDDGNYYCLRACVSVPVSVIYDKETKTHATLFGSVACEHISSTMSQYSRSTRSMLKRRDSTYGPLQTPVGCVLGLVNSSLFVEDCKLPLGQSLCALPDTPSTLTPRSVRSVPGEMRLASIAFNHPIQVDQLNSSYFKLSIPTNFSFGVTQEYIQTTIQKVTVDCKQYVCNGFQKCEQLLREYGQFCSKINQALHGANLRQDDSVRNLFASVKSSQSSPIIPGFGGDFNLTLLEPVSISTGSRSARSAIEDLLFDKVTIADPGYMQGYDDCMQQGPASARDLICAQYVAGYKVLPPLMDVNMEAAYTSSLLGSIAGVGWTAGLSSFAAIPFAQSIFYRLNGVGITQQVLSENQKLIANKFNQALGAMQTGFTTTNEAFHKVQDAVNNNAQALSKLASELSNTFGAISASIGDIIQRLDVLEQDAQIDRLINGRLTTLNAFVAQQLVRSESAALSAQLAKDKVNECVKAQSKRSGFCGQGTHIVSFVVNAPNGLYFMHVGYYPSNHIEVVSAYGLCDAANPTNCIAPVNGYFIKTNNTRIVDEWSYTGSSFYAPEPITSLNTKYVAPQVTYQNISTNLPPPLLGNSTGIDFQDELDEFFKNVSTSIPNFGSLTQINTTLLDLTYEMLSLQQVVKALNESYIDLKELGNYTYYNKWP
assayMethodText: ELISA

binder	prefixOperator	EC50 [nM]
1-L10-A (antibody, V domains shown) VH: EVKLEESGGGLVQPGGSMKLSCVASGFTFNNYWMNWVRQSPEKGLEWVAQMRLKSDNYATHYAESVKGRFTISRDDSKSSVYLQMNNLRAEDTGIYYCIEGYWTYWGQGTLVTVSA VL: QIVLTQSPAIMSASLGERVTMTCTASSSVSSSYLHWYQQKPGSSPKLWIYSTSNLASGVPARFSGNGSGTSYSLTISSMEAEDAATYYCLQYHRSPPYTFGGGTKLEIK	=	3.47
8-A17-A (antibody, V domains shown) VH: QVQLKESGPGLVAPSQSLSITCTVSGFSLTSYAISWVRQPPGKGLEWLGVVWPGGGTNYNSALKSRLSINKDNSKSQVFLKMNSLQTDDTGRYYCARTGYHFDYWGQGTTLTVSS VL: QIVLTQSPAIMSASPGEKVTMTCSVSSSVSYMHWYQQKSGTSPKRWIYDTSKLASGVPARFSGSGSGTSYSLTISSMEAEDAATYYCQQWSSNPPMYTFGGGTKLEIK	=	0.49
1-B11-A (antibody, V domains shown) VH: QVQLQQSGPELVKPGASVKISCKASGYTFTDHYINWVKQRPGQGLEWIGWIFPGSGSTYYNEQFKGKATLTVDKSSNTAYMLLSSLTSEDSAVYFCARSGGLRLGFAYWGQGTLVTVSA VL: DIQMTQTTSSLSASLGDRVTISCRASQDISNYLNWYQQKPDGTVKLLIYYTSRLHSGVPSRFSGSGSGTDYSLTISNLEQEDISTYFCQQVNTLPYTFGGGTKLEIK	=	0.63
2-G20-A (antibody, V domains shown) VH: EVQLQQSGPELVKPGASVKMSCKASGYTFPSYVLHWVKQKPGQGLEWIGYIYPYNDGTNYNEKFKGKATLTSDKSSSTAYMELSSLTSEDSAVYYCARGDYGDSAWFPYWGQGTLVTVSA VL: DIVLTQSPASLAVSLGQRATISCRASKSVSTSGYSYMHWYQQKPGQPPKLLIYLASNLKSGVPARFSGGGSGTDFTLNIHPVEEEDAATYYCQLSRELPWTFGGGTKLEIK	=	8.71
10-B11-A (antibody, V domains shown) VH: QVQLQQPGAELVKPGASVKVSCKASGYTFTSYWMHWVKQRPGQGLEWIGRIHPSDSDTNYYQKFKGKATLSVDKSSSTAYMQLSSLTSEDSAVYYCAIPLYSYDNSGGYYPMDYWGQGTSVTVSS VL: DIVMTQSQKFMSTSVGDRVTITCKASQNVRTAVAWYQQKPGQSPKKLIYLASNRHTGVPDRFTGSGSGTDFTLAISNVQSEDLADYFCLQHWNYPFTFGSGTRLEIK	>	200
